Assay: Pharmacokinetic evaluation in Mice (Table 3)
Type: in vivo
Conditions: mouse, in vivo; Mice, Table 3, PO 10 mg/kg
property name: Tmax (min)

INSERT INTO measurements (molecule, property_name, observed_measurement) VALUES
  ('Nc1ncn([C@H]2CC(O)[C@@H](CO)S2)c(=O)n1 (stereo partly shown)', 'Tmax', 27);

---

Tested on: LS1034
Test: drug activity profiling cytotoxicity
Assay type: cell-based
Settings: Homo sapiens, LS-1034; LS1034 cell line, Colon; read-out: Aza-T-dCyd IC50
Experimental: To obtain a biomarker for Aza-T-dCyd, drug activity profiling analysis was performed to evaluate the cytotoxicity of 200 cell lines. The drug responsiveness analysis of Aza-T-dCyd through drug activity profiling and genomic analysis of 200 cell lines confirmed the potent efficacy of Aza-T-dCyd in various solid tumors (Table 2).
pIC50: −log10 of the molar value.
property name: pIC50

INSERT INTO measurements (compound, property_name, observed_measurement) VALUES
  ('Nc1ncn([C@H]2CC(O)[C@@H](CO)S2)c(=O)n1 (stereo partly shown)', 'pIC50', 5.85);

---

Experiment: Pharmacokinetic evaluation in Mice (Table 3)
Type: in vivo
Settings: mouse, in vivo; Mice, Table 3, PO 0.5 mg/kg
Protocol: Aza-T-dCyd was administered orally and intravenously at various concentrations to Mice, Rats and Dogs to determine the PK profile.
property name: AUC(0-t) (ng·h/mL)

INSERT INTO results (compound, unit, observed_measurement) VALUES
  ('Nc1ncn([C@H]2CC(O)[C@@H](CO)S2)c(=O)n1 (stereo partly shown)', 'ng·h/mL', 62.4);

---

System: U-87 MG
Experiment: drug activity profiling cytotoxicity
Type: cell-based
Conditions: Homo sapiens; U-87 MG cell line, CNS (Glioma); read-out: Aza-T-dCyd IC50
property name: IC50 (nM)

INSERT INTO assay_data (compound, property_name, unit, observed_measurement) VALUES
  ('Nc1ncn([C@H]2CC(O)[C@@H](CO)S2)c(=O)n1 (stereo partly shown)', 'IC50', 'nM', 1640);

---

Assay: Pharmacokinetic evaluation in Mice (Table 3)
Format: in vivo
Conditions: mouse, in vivo; Mice, Table 3, PO 10 mg/kg; read-out: T½ (converted)
property name: half-life (min)

INSERT INTO measurements (compound, unit, observed_measurement) VALUES
  ('Nc1ncn([C@H]2CC(O)[C@@H](CO)S2)c(=O)n1 (stereo partly shown)', 'min', 66.6);

---

Test: Pharmacokinetic evaluation in Dog
Format: in vivo
Conditions: in vivo; Dog, PO 0.15 mg/kg
property name: AUC(0-t) (ng·h/mL)

INSERT INTO results (molecule, property_name, observed_measurement) VALUES
  ('Nc1ncn([C@H]2CC(O)[C@@H](CO)S2)c(=O)n1 (stereo partly shown)', 'AUC(0-t)', 409);

---

Assay: Pharmacokinetic evaluation in Mice (Table 4)
Details: mouse, in vivo, Table 4, PO 1 mg/kg
property name: AUC(0-inf) (ng·h/mL)

INSERT INTO measurements (compound, unit, observed_measurement) VALUES
  ('Nc1ncn([C@H]2CC(O)[C@@H](CO)S2)c(=O)n1 (stereo partly shown)', 'ng·h/mL', 235);

---

Experiment: Pharmacokinetic evaluation in Mice (Table 3)
Type: in vivo
Conditions: mouse, in vivo; Mice, Table 3, PO 1 mg/kg
property name: AUC(0-t)

INSERT INTO assay_data (compound, property_name, observed_measurement) VALUES
  ('Nc1ncn([C@H]2CC(O)[C@@H](CO)S2)c(=O)n1 (stereo partly shown)', 'AUC(0-t)', '0.106 µg·h/mL');
